Each entry below carries its recorded DC50.
# ASSAYED TARGET: EGFR L858R/C797S (BaF3 LC cells) (Homo sapiens, UniProt P00533, C797S/L858R)
# Construct: expressed in transfected cells; host or cells: BaF3
# Sequence (P00533 25-1210 C797S/L858R): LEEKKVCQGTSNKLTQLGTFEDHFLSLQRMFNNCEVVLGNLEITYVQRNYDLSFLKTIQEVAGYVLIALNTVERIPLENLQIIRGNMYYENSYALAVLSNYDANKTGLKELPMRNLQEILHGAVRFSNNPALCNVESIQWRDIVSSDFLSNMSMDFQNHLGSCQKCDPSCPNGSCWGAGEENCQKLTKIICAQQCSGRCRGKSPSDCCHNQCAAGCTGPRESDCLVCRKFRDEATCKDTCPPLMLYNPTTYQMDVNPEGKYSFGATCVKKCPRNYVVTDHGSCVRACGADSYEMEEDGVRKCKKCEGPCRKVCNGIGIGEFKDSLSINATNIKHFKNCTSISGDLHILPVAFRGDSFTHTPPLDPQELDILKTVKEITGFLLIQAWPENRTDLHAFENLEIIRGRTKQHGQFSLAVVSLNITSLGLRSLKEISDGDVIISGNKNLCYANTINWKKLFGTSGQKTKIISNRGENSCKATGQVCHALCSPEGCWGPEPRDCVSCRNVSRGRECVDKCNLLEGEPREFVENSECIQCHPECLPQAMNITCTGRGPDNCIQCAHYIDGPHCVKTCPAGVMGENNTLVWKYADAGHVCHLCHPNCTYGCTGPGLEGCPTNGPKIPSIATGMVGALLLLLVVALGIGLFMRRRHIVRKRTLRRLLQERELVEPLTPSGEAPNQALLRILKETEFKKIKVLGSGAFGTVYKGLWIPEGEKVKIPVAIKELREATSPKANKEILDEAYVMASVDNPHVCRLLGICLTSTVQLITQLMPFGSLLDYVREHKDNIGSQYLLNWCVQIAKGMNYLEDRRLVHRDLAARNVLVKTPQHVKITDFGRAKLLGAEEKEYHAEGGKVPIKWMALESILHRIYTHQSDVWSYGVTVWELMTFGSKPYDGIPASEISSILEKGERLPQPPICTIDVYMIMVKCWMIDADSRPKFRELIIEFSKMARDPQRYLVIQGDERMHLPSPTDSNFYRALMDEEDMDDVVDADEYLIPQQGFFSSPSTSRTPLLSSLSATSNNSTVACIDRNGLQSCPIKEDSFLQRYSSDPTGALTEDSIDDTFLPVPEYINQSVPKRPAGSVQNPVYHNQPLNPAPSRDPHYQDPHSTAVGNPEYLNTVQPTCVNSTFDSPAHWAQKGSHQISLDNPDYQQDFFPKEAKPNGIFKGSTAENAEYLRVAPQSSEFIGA
# PROCEDURE SUMMARY: EGFR degradation HTRF assay, BaF3 LC cells
# Assay type: cell-based
# PROTOCOL CONDITIONS: BaF3 LC, 16h treatment; read-out: BaF3 LC DC50
MEASUREMENT LABEL: DC50 (µM)

# MOLECULE, MEASUREMENT LABEL, OBSERVED MEASUREMENT
measured = [
    ("CCc1ccc2c(P(C)(C)=O)c(Nc3nc(Nc4cc(CC)c(N5CCC(N6CCN(C(=O)[C@@H]7CCN(c8cc(F)c([C@H]9CCC(=O)NC9=O)c(F)c8)C7)CC6)CC5)cc4OC)ncc3Br)cc(F)c2n1 [Example 533]", "DC50", 0.0288),
    ("CCc1ccc2c(P(C)(C)=O)c(Nc3nc(Nc4cc(CC)c(N5CCC(N6CCN(C(=O)C7CN(c8cc(F)c([C@H]9CCC(=O)NC9=O)c(F)c8)C7)CC6)CC5)cc4OC)ncc3Br)ccc2n1 [Example 755]", "DC50", 0.0164),
    ("CCc1cc(Nc2ncc(Br)c(Nc3ccc4nc(C)c(F)cc4c3P(C)(C)=O)n2)c(OC)cc1N1CCC(N2CCN(C(=O)[C@@H]3CCN(c4cc(F)c([C@H]5CCC(=O)NC5=O)c(F)c4)C3)CC2)CC1 [Example 488]", "DC50", 0.0179),
]

---

# ASSAYED TARGET: EGFR L858R/T790M (H1975-clone #36, homozygous) (Homo sapiens, UniProt P00533, L858R/T790M)
# Construct: designed to specifically target WT EGFR but preserve the L858R/T790M copy; host or cells: H1975-clone #36
# Sequence (P00533 25-1210 T790M/L858R): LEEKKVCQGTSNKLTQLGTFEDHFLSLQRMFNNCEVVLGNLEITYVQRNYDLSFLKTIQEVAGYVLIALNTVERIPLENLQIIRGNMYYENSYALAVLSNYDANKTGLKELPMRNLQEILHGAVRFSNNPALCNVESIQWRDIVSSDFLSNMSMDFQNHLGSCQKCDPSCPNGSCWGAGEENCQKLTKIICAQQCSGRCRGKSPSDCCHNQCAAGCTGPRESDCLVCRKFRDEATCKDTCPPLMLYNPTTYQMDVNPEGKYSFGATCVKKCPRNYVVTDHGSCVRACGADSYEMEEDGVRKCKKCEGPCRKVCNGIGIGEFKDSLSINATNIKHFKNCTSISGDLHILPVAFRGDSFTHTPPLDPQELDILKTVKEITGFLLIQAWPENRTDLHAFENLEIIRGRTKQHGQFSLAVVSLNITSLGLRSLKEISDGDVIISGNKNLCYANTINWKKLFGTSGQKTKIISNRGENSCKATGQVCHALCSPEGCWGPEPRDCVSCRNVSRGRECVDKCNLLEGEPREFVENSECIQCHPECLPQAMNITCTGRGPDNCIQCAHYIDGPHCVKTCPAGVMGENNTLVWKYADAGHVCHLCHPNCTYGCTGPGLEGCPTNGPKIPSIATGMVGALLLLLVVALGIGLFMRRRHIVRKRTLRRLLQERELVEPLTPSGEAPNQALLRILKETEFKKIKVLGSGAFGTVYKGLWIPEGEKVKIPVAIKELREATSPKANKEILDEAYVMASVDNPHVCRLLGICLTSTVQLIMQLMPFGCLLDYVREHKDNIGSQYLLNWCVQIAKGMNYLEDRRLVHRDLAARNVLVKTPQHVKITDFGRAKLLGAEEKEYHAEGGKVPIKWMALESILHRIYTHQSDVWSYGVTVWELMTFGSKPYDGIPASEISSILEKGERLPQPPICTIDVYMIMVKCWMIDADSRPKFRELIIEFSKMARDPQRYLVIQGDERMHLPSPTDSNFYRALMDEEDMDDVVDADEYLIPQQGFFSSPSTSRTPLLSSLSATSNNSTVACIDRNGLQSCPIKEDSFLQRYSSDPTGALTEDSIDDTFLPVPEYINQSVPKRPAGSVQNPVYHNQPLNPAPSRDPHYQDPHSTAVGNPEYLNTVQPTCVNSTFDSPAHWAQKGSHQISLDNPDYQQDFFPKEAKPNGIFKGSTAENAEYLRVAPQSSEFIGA
# PROCEDURE SUMMARY: EGFR degradation HTRF assay, H1975-clone #36 cells
# Assay type: cell-based
# PROTOCOL CONDITIONS: NCI-H1975; H1975 #36, 16h treatment, maximum percentage of degradation
MEASUREMENT LABEL: Dmax (%)

# MOLECULE, MEASUREMENT LABEL, OBSERVED MEASUREMENT
rows = [
    ("COc1cc(N2CCN(CCC3CCN(c4ccc(C5CCC(=O)NC5=O)cc4)CC3)CC2)c(C)cc1Nc1ncc(Br)c(Nc2ccc3nccnc3c2P(C)(C)=O)n1 (stereo not drawn) [Example 90]", "Dmax", 77.5),
    ("CCc1cc(Nc2ncc(Br)c(Nc3ccc4nccnc4c3P(C)(C)=O)n2)c(OC)cc1N1CCC(N2CCN(C3CC(c4ccc5c(c4)C(C)(C)C(=O)N5C4CCC(=O)NC4=O)C3)CC2)CC1 (stereo not drawn) [Example 317]", "Dmax", 47),
    ("COc1cc(N2CCC(N3CCN(CCC4CCN(c5ccc(C6CCC(=O)NC6=O)cc5)CC4)CC3)CC2)ccc1Nc1ncc(Cl)c(Nc2ccccc2P(C)(C)=O)n1 (stereo not drawn) [Example 106]", "Dmax", 63),
    ("COc1cc(N2CCN(CC3CCN(c4ccc(N5CCC(=O)NC5=O)cc4)CC3)CC2)ccc1Nc1ncc(Cl)c(Nc2ccccc2P(C)(C)=O)n1 [Example 115]", "Dmax", 74.7),
    ("CCc1cc(Nc2ncc(Br)c(Nc3ccc4nccnc4c3P(C)(C)=O)n2)c(OC)cc1N1CCC(N2CCN(C(=O)C3CCN(c4cc(F)c(C5CCC(=O)NC5=O)c(F)c4)CC3)CC2)CC1 (stereo not drawn) [Example 254]", "Dmax", 75.5),
    ("CCc1cc(Nc2ncc(Br)c(Nc3ccc4nccnc4c3P(C)(C)=O)n2)c(OC)cc1N1CCC(N2CCN(C(=O)[C@@H]3CCN(c4ccc5c(c4)C(=O)N(C4CCC(=O)NC4=O)C5=O)C3)CC2)CC1 (stereo partly drawn) [Example 65]", "Dmax", 85.6),
    ("COc1cc(N2CCN(CC3CCN(c4ccc(N5CCC(=O)NC5=O)cc4C)CC3)CC2)c(C)cc1Nc1ncc(Br)c(Nc2ccc3nccnc3c2P(C)(C)=O)n1 [Example 98]", "Dmax", 8.3),
    ("CCc1cc(Nc2ncc(Br)c(Nc3ccc4nccnc4c3P(C)(C)=O)n2)c(OC)cc1N1CCC(N2CCN(CC3CCN(c4ccc(C5CCC(=O)NC5=O)cc4)C3)CC2)CC1 (stereo not drawn) [Example 168]", "Dmax", 62.4),
    ("COc1cc(N2CCN(CC3CCN(c4ccc(C5CCC(=O)NC5=O)cc4)CC3)CC2)ccc1Nc1ncc(Cl)c(Nc2ccccc2P(C)(C)=O)n1 (stereo not drawn) [Example 105]", "Dmax", 83.7),
]
